Listing of entries alongside the reported relative viability.
System: LCLC-103H
protocol-text: relative viability (nuclei count vs DMSO), 5 days (fraction); higher = more cells survive
setup-conditions: first compound 4 µM

compound	relative viability
Cc1sc2c(c1C)C(c1ccc(Cl)cc1)=N[C@@H](CC(=O)OC(C)(C)C)c1nnc(C)n1-2 [JQ1] + CS(=O)(=O)N1CCN(Cc2cc3nc(-c4cccc5[nH]ncc45)nc(N4CCOCC4)c3s2)CC1 [Pictilisib] (partner 1 µM)	0.352
Cc1sc2c(c1C)C(c1ccc(Cl)cc1)=N[C@@H](CC(=O)OC(C)(C)C)c1nnc(C)n1-2 [JQ1] + Cc1cc(Nc2cc(N3CCN(C)CC3)nc(Sc3ccc(NC(=O)C4CC4)cc3)n2)n[nH]1 [Tozasertib] (partner 0.1 µM)	0.171
Cc1sc2c(c1C)C(c1ccc(Cl)cc1)=N[C@@H](CC(=O)OC(C)(C)C)c1nnc(C)n1-2 [JQ1] + N=C(N)NC(=N)NCCc1ccccc1 [Phenformin] (partner 250 µM)	0.28

---

Tested on: HCC-15
protocol-text: relative viability (nuclei count vs DMSO), 5 days (fraction); higher = more cells survive
setup-conditions: first compound 8 µM
Listing of entries alongside the reported relative viability.

compound	relative viability
O=c1[nH]c2ccccc2n1C1CCN(CCCC(c2ccc(F)cc2)c2ccc(F)cc2)CC1 [Pimozide] + CS(=O)(=O)CCNCc1ccc(-c2ccc3ncnc(Nc4ccc(OCc5cccc(F)c5)c(Cl)c4)c3c2)o1 [Lapatinib] (partner 2 µM)	0.777
O=c1[nH]c2ccccc2n1C1CCN(CCCC(c2ccc(F)cc2)c2ccc(F)cc2)CC1 [Pimozide] + CS(=O)(=O)N1CCN(Cc2cc3nc(-c4cccc5[nH]ncc45)nc(N4CCOCC4)c3s2)CC1 [Pictilisib] (partner 1 µM)	0.749
O=c1[nH]c2ccccc2n1C1CCN(CCCC(c2ccc(F)cc2)c2ccc(F)cc2)CC1 [Pimozide] + CCNC(=O)c1noc(-c2cc(C(C)C)c(O)cc2O)c1-c1ccc(CN2CCOCC2)cc1 [Luminespib] (partner 0.01 µM)	0.308
O=c1[nH]c2ccccc2n1C1CCN(CCCC(c2ccc(F)cc2)c2ccc(F)cc2)CC1 [Pimozide] + CC(=O)c1c(C)c2cnc(Nc3ccc(N4CCNCC4)cn3)nc2n(C2CCCC2)c1=O [Palbociclib] (partner 0.5 µM)	0.653
O=c1[nH]c2ccccc2n1C1CCN(CCCC(c2ccc(F)cc2)c2ccc(F)cc2)CC1 [Pimozide] + Cc1nc(NC(=O)N2CCC[C@H]2C(N)=O)sc1-c1ccnc(C(C)(C)C(F)(F)F)c1 [Alpelisib] (partner 2 µM)	0.769
O=c1[nH]c2ccccc2n1C1CCN(CCCC(c2ccc(F)cc2)c2ccc(F)cc2)CC1 [Pimozide] + C[C@@H](Oc1cc(-c2cnn(C3CCNCC3)c2)cnc1N)c1c(Cl)ccc(F)c1Cl [Crizotinib] (partner 1 µM)	0.797

---

Tested on: LXF-289
protocol-text: relative viability (nuclei count vs DMSO), 5 days (fraction); higher = more cells survive
setup-conditions: first compound 0.01581 µM

compound	relative viability
Nc1ccn([C@@H]2O[C@H](CO)[C@@H](O)[C@@H]2O)c(=O)n1 [Cytarabine] + Cc1cc(Nc2cc(N3CCN(C)CC3)nc(Sc3ccc(NC(=O)C4CC4)cc3)n2)n[nH]1 [Tozasertib] (partner 0.1 µM)	0.182
Nc1ccn([C@@H]2O[C@H](CO)[C@@H](O)[C@@H]2O)c(=O)n1 [Cytarabine] + COc1cccc2cc(-c3nc([C@H]4CC[C@H](C(=O)O)CC4)n4ncnc(N)c34)[nH]c12 [OSI-027] (partner 0.5 µM)	0.634
Nc1ccn([C@@H]2O[C@H](CO)[C@@H](O)[C@@H]2O)c(=O)n1 [Cytarabine] + Cc1nc(Nc2ncc(C(=O)Nc3c(C)cccc3Cl)s2)cc(N2CCN(CCO)CC2)n1 [Dasatinib] (partner 0.075 µM)	0.202
Nc1ccn([C@@H]2O[C@H](CO)[C@@H](O)[C@@H]2O)c(=O)n1 [Cytarabine] + CC(=O)Nc1cccc(-n2c(=O)n(C3CC3)c(=O)c3c(Nc4ccc(I)cc4F)n(C)c(=O)c(C)c32)c1 [Trametinib] (partner 0.02 µM)	0.573

---

Test system: NCI-H2009
protocol-text: relative viability (nuclei count vs DMSO), 5 days (fraction); higher = more cells survive
setup-conditions: first compound 2.53 µM

compound	relative viability
Cc1cnc(-c2cnc(NCCNc3ccc(C#N)cn3)nc2-c2ccc(Cl)cc2Cl)[nH]1 + C[C@]1(O)C[C@@H](c2nc(-c3ccc4ccc(-c5ccccc5)nc4c3)c3c(N)nccn32)C1 [Linsitinib] (partner 1 µM)	1.1
Cc1cnc(-c2cnc(NCCNc3ccc(C#N)cn3)nc2-c2ccc(Cl)cc2Cl)[nH]1 + CS(=O)(=O)N1CCN(Cc2cc3nc(-c4cccc5[nH]ncc45)nc(N4CCOCC4)c3s2)CC1 [Pictilisib] (partner 1 µM)	0.732

---

System: NCI-H1793
protocol-text: relative viability (nuclei count vs DMSO), 5 days (fraction); higher = more cells survive
setup-conditions: first compound 8 µM

molecule	relative viability
O=c1[nH]c2ccccc2n1C1CCN(CCCC(c2ccc(F)cc2)c2ccc(F)cc2)CC1 [Pimozide] + CC(=O)c1c(C)c2cnc(Nc3ccc(N4CCNCC4)cn3)nc2n(C2CCCC2)c1=O [Palbociclib] (partner 0.5 µM)	0.339
O=c1[nH]c2ccccc2n1C1CCN(CCCC(c2ccc(F)cc2)c2ccc(F)cc2)CC1 [Pimozide] + CCNC(=O)c1noc(-c2cc(C(C)C)c(O)cc2O)c1-c1ccc(CN2CCOCC2)cc1 [Luminespib] (partner 0.01 µM)	0.149
O=c1[nH]c2ccccc2n1C1CCN(CCCC(c2ccc(F)cc2)c2ccc(F)cc2)CC1 [Pimozide] + COc1cc2c(Oc3ccc(NC(=O)C4(C(=O)Nc5ccc(F)cc5)CC4)cc3F)ccnc2cc1OCCCN1CCOCC1 [Foretinib] (partner 0.25 µM)	0.521
O=c1[nH]c2ccccc2n1C1CCN(CCCC(c2ccc(F)cc2)c2ccc(F)cc2)CC1 [Pimozide] + Nc1ncn([C@H]2C[C@H](O)[C@@H](CO)O2)c(=O)n1 [Decitabine] (partner 2 µM)	0.58
O=c1[nH]c2ccccc2n1C1CCN(CCCC(c2ccc(F)cc2)c2ccc(F)cc2)CC1 [Pimozide] + Cc1nc(Nc2ncc(C(=O)Nc3c(C)cccc3Cl)s2)cc(N2CCN(CCO)CC2)n1 [Dasatinib] (partner 0.075 µM)	0.35
O=c1[nH]c2ccccc2n1C1CCN(CCCC(c2ccc(F)cc2)c2ccc(F)cc2)CC1 [Pimozide] + NC(=O)Nc1cc(-c2cccc(F)c2)sc1C(=O)N[C@H]1CCCNC1 [AZD7762] (partner 0.2 µM)	0.28

---

Listing of entries alongside the reported relative viability.
Test system: NCI-H661
protocol-text: relative viability (nuclei count vs DMSO), 5 days (fraction); higher = more cells survive
setup-conditions: first compound 0.08 µM

molecule	relative viability
Cc1cnc(-c2cnc(NCCNc3ccc(C#N)cn3)nc2-c2ccc(Cl)cc2Cl)[nH]1 + O=C(CCCCCCC(=O)Nc1ccccc1)NO [Vorinostat] (partner 1 µM)	0.906
O=c1[nH]c2ccccc2n1C1CCN(CCCC(c2ccc(F)cc2)c2ccc(F)cc2)CC1 [Pimozide] + O=C(CCCCCCC(=O)Nc1ccccc1)NO [Vorinostat] (partner 1 µM)	0.667
Cc1cnc(-c2cnc(NCCNc3ccc(C#N)cn3)nc2-c2ccc(Cl)cc2Cl)[nH]1 + CS(=O)(=O)CCNCc1ccc(-c2ccc3ncnc(Nc4ccc(OCc5cccc(F)c5)c(Cl)c4)c3c2)o1 [Lapatinib] (partner 2 µM)	0.523

---

Listing of entries alongside the reported relative viability.
System: NCI-H2228
protocol-text: relative viability (nuclei count vs DMSO), 5 days (fraction); higher = more cells survive
setup-conditions: first compound 0.002 µM

compound	relative viability
CC(=O)O[C@@]12CO[C@@H]1C[C@H](O)[C@@]1(C)C(=O)[C@H](O)C3=C(C)[C@@H](OC(=O)[C@H](O)[C@@H](NC(=O)OC(C)(C)C)c4ccccc4)C[C@@](O)([C@@H](OC(=O)c4ccccc4)[C@H]21)C3(C)C [Docetaxel] + O=C(c1cc(Cc2n[nH]c(=O)c3ccccc23)ccc1F)N1CCN(C(=O)C2CC2)CC1 [Olaparib] (partner 8 µM)	0.153
CC(=O)O[C@@]12CO[C@@H]1C[C@H](O)[C@@]1(C)C(=O)[C@H](O)C3=C(C)[C@@H](OC(=O)[C@H](O)[C@@H](NC(=O)OC(C)(C)C)c4ccccc4)C[C@@](O)([C@@H](OC(=O)c4ccccc4)[C@H]21)C3(C)C [Docetaxel] + CCNC(=O)c1noc(-c2cc(C(C)C)c(O)cc2O)c1-c1ccc(CN2CCOCC2)cc1 [Luminespib] (partner 0.01 µM)	0.129
CC(=O)O[C@@]12CO[C@@H]1C[C@H](O)[C@@]1(C)C(=O)[C@H](O)C3=C(C)[C@@H](OC(=O)[C@H](O)[C@@H](NC(=O)OC(C)(C)C)c4ccccc4)C[C@@](O)([C@@H](OC(=O)c4ccccc4)[C@H]21)C3(C)C [Docetaxel] + CC(=O)c1c(C)c2cnc(Nc3ccc(N4CCNCC4)cn3)nc2n(C2CCCC2)c1=O [Palbociclib] (partner 0.5 µM)	0.195
